Recorded pEC50 for the following compounds
assay_system: CFTR in F508del/MF-HBE cells (Homo sapiens, UniProt P13569, DEL508-508)
Construct: human bronchial epithelial (HBE) cells derived from CF subjects heterozygous for F508del and a minimal function CFTR mutation; endogenous in cells; host or cells: primary human bronchial epithelial cells from CF subjects (F508del/MF-HBE)
Sequence (P13569 with tags, fused parts or gaps DEL508-508): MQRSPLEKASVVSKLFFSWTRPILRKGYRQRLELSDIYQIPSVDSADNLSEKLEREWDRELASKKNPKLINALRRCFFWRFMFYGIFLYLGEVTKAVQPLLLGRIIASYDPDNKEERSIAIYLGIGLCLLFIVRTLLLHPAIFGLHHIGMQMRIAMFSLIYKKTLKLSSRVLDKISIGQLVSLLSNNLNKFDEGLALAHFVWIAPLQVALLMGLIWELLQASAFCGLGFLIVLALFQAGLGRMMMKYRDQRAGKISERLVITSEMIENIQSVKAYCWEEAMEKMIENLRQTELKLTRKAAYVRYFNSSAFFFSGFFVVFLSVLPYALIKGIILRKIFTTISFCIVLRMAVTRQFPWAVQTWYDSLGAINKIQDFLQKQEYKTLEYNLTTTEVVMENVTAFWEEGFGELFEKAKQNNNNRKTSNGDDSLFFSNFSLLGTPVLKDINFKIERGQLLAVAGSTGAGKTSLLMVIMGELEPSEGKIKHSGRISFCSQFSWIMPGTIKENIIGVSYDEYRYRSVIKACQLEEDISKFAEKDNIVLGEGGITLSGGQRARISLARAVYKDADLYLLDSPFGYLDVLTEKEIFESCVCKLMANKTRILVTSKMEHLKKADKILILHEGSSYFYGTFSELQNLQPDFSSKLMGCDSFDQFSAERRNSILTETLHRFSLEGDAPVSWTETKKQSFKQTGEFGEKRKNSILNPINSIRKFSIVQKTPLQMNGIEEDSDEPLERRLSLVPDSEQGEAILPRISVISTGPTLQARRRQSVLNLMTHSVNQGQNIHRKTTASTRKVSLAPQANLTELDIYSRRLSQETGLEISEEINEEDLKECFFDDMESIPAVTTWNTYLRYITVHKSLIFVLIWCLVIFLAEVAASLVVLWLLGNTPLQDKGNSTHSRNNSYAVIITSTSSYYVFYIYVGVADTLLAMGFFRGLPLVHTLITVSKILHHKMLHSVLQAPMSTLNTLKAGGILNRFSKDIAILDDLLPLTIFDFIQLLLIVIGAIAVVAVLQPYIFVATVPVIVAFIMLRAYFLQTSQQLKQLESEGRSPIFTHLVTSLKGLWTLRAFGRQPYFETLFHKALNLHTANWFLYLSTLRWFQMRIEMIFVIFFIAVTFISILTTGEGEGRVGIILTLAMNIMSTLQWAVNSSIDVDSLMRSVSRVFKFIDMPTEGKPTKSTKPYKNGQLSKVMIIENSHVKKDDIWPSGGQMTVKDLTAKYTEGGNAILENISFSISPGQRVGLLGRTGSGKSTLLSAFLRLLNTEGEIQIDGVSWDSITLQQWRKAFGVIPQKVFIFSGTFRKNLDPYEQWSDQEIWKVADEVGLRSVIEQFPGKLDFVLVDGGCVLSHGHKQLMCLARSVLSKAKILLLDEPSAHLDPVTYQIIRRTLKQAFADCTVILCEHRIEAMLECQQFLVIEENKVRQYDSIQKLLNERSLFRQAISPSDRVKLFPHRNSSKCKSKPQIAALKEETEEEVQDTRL
protocol: Ussing chamber assay of CFTR-mediated short-circuit currents (identification of potentiator compounds)
Assay type: cell-based
condition_notes: potentiator incubated 18-24 hours at 37° C. in combination with 10 μM corrector, in the presence of 20% human serum, CFTR-mediated ISC
pEC50: −log10 of the molar value.

compound	assay_system	endpoint_result
Nc1cc(C(F)(F)F)c2nc1-c1nnc(o1)[C@@](O)(C(F)(F)F)CCCCCN(Cc1cc(F)cc(C(F)(F)F)c1)C2=O	CFTR in F508del/MF-HBE cells (Homo sapiens, UniProt P13569, DEL508-508)	> 6.30
Nc1cc(C(F)(F)F)c2nc1-c1nnc(o1)C(O)(C(F)(F)F)CCCCCN(CC(F)(F)F)C2=O (single isomer, unassigned) [Compound 207]	CFTR in F508del/MF-HBE cells (Homo sapiens, UniProt P13569, DEL508-508)	< 6.00

What does the record list as pEC50 for `Nc1cc(C(F)(F)F)c2nc1-c1nnc(o1)[C@@](O)(C(F)(F)F)CCCCCN(Cc1cccc(Br)c1)C2=O` ? > 6.30

Similarly, Nc1cc(C(F)(F)F)c2nc1-c1nnc(o1)C(O)(C(F)(F)F)CCCCN(Cc1ccccc1)C2=O (single isomer, unassigned) [Compound 239] ? > 6.30

Similarly, CN1CCCCC(O)(C(F)(F)F)C2=NN=C(O2)c2nc(c(C(F)(F)F)cc2N)CC1=O (stereo not shown) ? < 6.00

Similarly, `CC(C)(C)c1cccc(CN2CCCCC[C@](O)(C(F)(F)F)C3=NN=C(O3)c3nc(c(C(F)(F)F)cc3N)C2=O)c1` ? > 6.30

Similarly, CC(=O)N1CCCCCC(O)(C(F)(F)F)C2=NN=C(O2)c2nc(c(C(F)(F)F)cc2N)C1 (single isomer, unassigned) [Compound 20] ? > 6.30
